// reported MFI per item
- TARGET: T1, cynomolgus IL-17RA, on cells (cynomolgus)
- T1 construct: whole, on cells; also called CHO-cynoIL-17RA; cyno IL-17RA+ CHO cells
- ASSAY_METHOD_TEXT: FACS competition: non-clonal supernatant inhibiting biotin-huIL-17A (competitor) binding to cyno IL-17RA+ CHO cells
Field format: numeric only.

Please review the following examples before continuing.
| BINDER | MFI |
| --- | --- |
| AMH5/AML5 (antibody, IgG2, V domains shown, human mAb from IgG2 XenoMouse mice; tested only as part of a non-clonal hybridoma supernatant; also called AM-5) VH: QVQLQESGPGLVKPSETLPLTCTVSGGSIRSYYWSWIRQPAGKGLEWIGRIYRSGNTIYNPSLKSRVTMSIDTSKNQFSLTLSSVTAADTAVYYCARENYSESSGLYYYYGMDVWGQGTTVTVSS VL: DIQMTQSPSSLSASVGDRVTITCRASQGIRNDLGWYQQKPGKAPKRLIYAASSFQSGVPSRFSGSGSGTGFTLTISSLQPEDFATYYCLQHNSYPPTFGQGTKVEIK | 9 |
| AMH11/AML11 (antibody, IgG2, V domains shown, human mAb from IgG2 XenoMouse mice; also called AM-11; antibody A) VH: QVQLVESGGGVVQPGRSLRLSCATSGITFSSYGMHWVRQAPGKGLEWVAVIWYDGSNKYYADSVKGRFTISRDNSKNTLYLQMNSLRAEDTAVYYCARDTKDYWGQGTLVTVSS VL: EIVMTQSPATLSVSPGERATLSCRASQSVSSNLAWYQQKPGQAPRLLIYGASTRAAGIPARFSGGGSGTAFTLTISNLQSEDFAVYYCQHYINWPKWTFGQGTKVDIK | 9 |
| AMH1/AML1 (antibody, IgG2, V domains shown, human mAb from IgG2 XenoMouse mice; also called AM-1; antibody H) VH: QVQLQESGPGLVKPSETLSLTCTVSGGSISNYYWNWIRQSPGKGLEWIGDIYYSGSTNYNPSLKSRVTISVDTSKNQFSLKLSSVTTADTAVYYCARDGELANYYGSGSYQFYYYYGMDVWGQGTTVTVSS VL: DILMTQSPSSLSASVGDRVTITCRASQGIRNDLGWYQQKPGKAPKRLIYAASSLQSGVPSRFSGSGSGTEFTLTISSLQPEDFATYYCLQHNSNPFTFGPGTKVDIK | 11 |

For the next question, use this binder.
Incoming: Please indicate MFI recorded for AMH22/AML22 (antibody, IgG2, V domains shown, human mAb from IgG2 XenoMouse mice; also called AM-22; antibody I) VH: QVQLVQSGAEVKKPGASVKVSCKASGYTFTRYGISWVRQAPGQGLEWMGWISAYSGNTNYAQKLQGRVTMTTDTSTSTAYMELRSLRSDDTAVYYCARRQLYFDYWGQGTLVTVSS VL: EIVMTQSPATLSVSPGERVTLSCRASQSVSSNLAWFQQKPGQAPRPLIYDASTRAAGIPARFSGSGSGTDFTLTISSLQSEDFAVYYCQQYDNWPLTFGGGTKVEIK
Outgoing: 18
